Please go through the items and note down their Weed suppression rate (%) Echinochloa crus-galli.
system: Echinochloa crus-galli; assay: Test Example 12: herbicidal effect test by treatment during growing period in paddy field; type: in vivo; settings: 120 g/10a; treatment seven days after sowing in flooded paddy pot; assessed 14 days after treatment
One number for each entry, in %.

Use the examples below as a reference point.
CC(C)N(C(=O)n1cnn(S(C)(=O)=O)c1=O)c1ccccc1 = 90
CC(C)N(C(=O)n1cnn(S(C)(=O)=O)c1=O)c1cccc(F)c1 = 90
CC(C)N(C(=O)n1cnn(S(=O)(=O)c2ccccc2Cl)c1=O)c1ccc(F)cc1F = 100

Could you now look at the following molecule, please?
Using the record for "CCc1ccc(S(=O)(=O)n2ncn(C(=O)N(CC)CC)c2=O)cc1" , report its Weed suppression rate (%) Echinochloa crus-galli.
90

###

Please go through the items and note down their Weed suppression rate (%) Monochoria vaginalis.
test system: Monochoria vaginalis; assay: Test Example 12: herbicidal effect test by treatment during growing period in paddy field; format: in vivo; conditions: 120 g/10a; treatment seven days after sowing in flooded paddy pot; assessed 14 days after treatment
One number for each entry, in %.

CC(C)N(C(=O)n1cnn(S(=O)(=O)c2ccc(Br)cc2)c1=O)c1ccc(F)cc1F [Compound 11-616] = 80
CC(C)N(Cc1ccc(F)cc1F)C(=O)n1cnn(S(=O)(=O)N(C)C)c1=O [Compound 11-1088] = 80
Cc1cc(C)c(S(=O)(=O)n2ncn(C(=O)N(c3ccc(Cl)cn3)C(C)C)c2=O)c(C)c1 [Compound 11-889] = 80
CC(C)N(C(=O)n1cnn(S(=O)(=O)C2CCCC2)c1=O)c1ccc(F)cc1F [Compound 11-273] = 90
CC(C)N(C(=O)n1cnn(S(=O)(=O)c2cccs2)c1=O)c1ccc(F)cc1 [Compound 11-1014] = 80
CC(C)N(C(=O)n1cnn(S(=O)(=O)N(C)C)c1=O)c1c(F)c(F)cc(F)c1F [Compound 11-1069] = 70
CC(C)N(C(=O)n1cnn(S(=O)(=O)C2CC2)c1=O)c1ncc(Cl)cc1Cl [Compound 11-234] = 90

Using the record for CC(C)N(C(=O)n1cnn(S(=O)(=O)c2cccs2)c1=O)c1ccc(F)c(F)c1F [Compound 11-1025] , report its Weed suppression rate (%) Monochoria vaginalis.
100

###

Please go through the items and note down their Weed suppression rate (%) Lindemia pyxidaria.
system: Lindernia pyxidaria; assay: Test Example 12: herbicidal effect test by treatment during growing period in paddy field; assay type: in vivo; conditions: 120 g/10a; treatment seven days after sowing in flooded paddy pot; assessed 14 days after treatment
Please answer in the form of a number followed by its unit of measurement.

Use the examples below as a reference point.
CC(C)N(C(=O)n1cnn(S(=O)(=O)C2CC2)c1=O)c1ccc(Cl)cc1F [Compound 11-206] = 90%
CCN(C)S(=O)(=O)n1ncn(C(=O)N(c2ccc(F)cc2F)C(C)C)c1=O [Compound 11-1098] = 70%
Cc1cc(Cl)ccc1N(C(=O)n1cnn(S(=O)(=O)C2CCCCC2)c1=O)C(C)C [Compound 11-309] = 80%
CC(C)N(C(=O)n1cnn(S(=O)(=O)N(C)C)c1=O)c1ccc(C(F)(F)F)cc1Cl [Compound 11-1084] = 80%
CC(C)N(C(=O)n1cnn(S(=O)(=O)c2ccc(F)cc2)c1=O)c1ccccc1F [Compound 11-465] = 80%
Cc1ccc(S(=O)(=O)n2ncn(C(=O)N(c3ccc(Br)cc3Cl)C(C)C)c2=O)cc1 [Compound 11-648] = 60%
Cc1ccc(N(C(=O)n2cnn(S(C)(=O)=O)c2=O)C(C)C)c(F)c1 [Compound 11-26] = 80%
CC(C)N(C(=O)n1cnn(S(C)(=O)=O)c1=O)c1c(F)cc(F)cc1F [Compound 11-16] = 90%

Below are some compounds; for each one, tell me its Weed suppression rate (%) Lindemia pyxidaria.
1. CC(C)N(C(=O)n1cnn(S(=O)(=O)c2cccs2)c1=O)c1ccc(Br)cc1Cl [Compound 11-1033]
2. Cc1cc(C)c(S(=O)(=O)n2ncn(C(=O)N(c3ccccc3F)C(C)C)c2=O)c(C)c1 [Compound 11-853]
3. CCS(=O)(=O)n1ncn(C(=O)N(c2c(F)cccc2F)C(C)C)c1=O [Compound 11-1150]
4. CC(C)N(C(=O)n1cnn(S(=O)(=O)C2CCCCC2)c1=O)c1c(F)cc(F)cc1F [Compound 11-298]
5. CC(C)N(C(=O)n1cnn(S(=O)(=O)c2ccc(C(C)(C)C)cc2)c1=O)c1ccccc1F [Compound 11-672]
6. CC(C)N(C(=O)n1cnn(S(=O)(=O)C(C)C)c1=O)c1ccc(Cl)cn1 [Compound 11-85]
7. CC(C)N(C(=O)n1cnn(S(=O)(=O)c2ccc(C(C)(C)C)cc2)c1=O)c1ccc(F)c(F)c1F [Compound 11-685]

1: 100%; 2: 80%; 3: 100%; 4: 80%; 5: 80%; 6: 90%; 7: 60%

Using the record for CC(C)N(C(=O)n1cnn(S(=O)(=O)c2cccs2)c1=O)c1ccccc1 [Compound 11-1011] , report its Weed suppression rate (%) Lindemia pyxidaria.
80%

Origin of the recorded values: patent US11076595B2
